The reported numbers originate from patent US20090181963A1.

Here we list compounds with their recorded IC50 when tested on UniProtKB P48736.
Quick note: give the figure in nM, leave out the unit.

Give the value of IC50 reported for the following: `Cn1nnc2c(N3CCOCC3)nc(-c3ccc(NC(=O)Nc4cccnc4)cc3)nc21` 49

Report measured IC50; entry is `CC(C)n1nnc2c(N3CCOCC3)nc(-c3ccc(NC(=O)Nc4ccc(C(=O)N5CCN(C)CC5)cc4)cc3)nc21` 10

Identify measured IC50 corresponding to `Oc1cccc(-c2nc(N3CCOCC3)c3nnn(C4CN(Cc5ccccc5)C4)c3n2)c1` 1240

State its IC50 for this compound: `COC(=O)c1cccc(-n2nnc3c(N4CCOCC4)nc(-c4cccc(O)c4)nc32)c1` 3630

Identify the reported IC50 for the following entry. `Oc1cccc(-c2nc(N3CCOCC3)c3nnn(C4CN(Cc5ccc(F)nc5)C4)c3n2)c1` 1100

Read off the recorded IC50 for `O=C(NCCN1CCCC1)c1ccc(Cn2nnc3c(N4CCOCC4)nc(-c4cccc(O)c4)nc32)cc1` 1380

State, in one line, measured IC50 of `CN(C)CCCCn1nnc2c(N3CCOCC3)nc(-c3cccc(O)c3)nc21` 780

Consider the compound `COC(Cn1nnc2c(N3CCOCC3)nc(-c3ccc(NC(=O)Nc4ccc(F)cc4)cc3)nc21)OC` and give its recorded IC50. 152

Look up IC50 of `Cn1cccc1CN1CCC(n2nnc3c(N4CCOCC4)nc(-c4cncc(O)c4)nc32)CC1` and report it. 277

Please give the documented IC50 of `O=C(Nc1ccccc1)Nc1ccc(-c2nc(N3CCOCC3)c3nnn(CC4CN(Cc5ccccc5)C4)c3n2)cc1` 329

Read off the recorded IC50 for `CCN(CC)C(=O)c1ccc(Cn2nnc3c(N4CCOCC4)nc(-c4cccc(O)c4)nc32)cc1` 2420

Quick one: give measured IC50 for `CCn1nnc2c(N3CCOCC3)nc(-c3ccc(NC(=O)Nc4ccc(C(=O)NCCCN5CCN(C)CC5)cc4)cc3)nc21` 16.5

Given `CC(C)CN1CCN(CCn2nnc3c(N4CCOCC4)nc(-c4cccc(O)c4)nc32)CC1` , respond with its IC50. 2770

Give the measured IC50 for `COC(Cn1nnc2c(N3CCOCC3)nc(-c3ccc(NC(=O)Nc4ccc(C(N)=O)cc4)cc3)nc21)OC` 27

Return the recorded IC50 value; entry: `CNC(=O)Nc1ccc(-c2nc(N3CCOCC3)c3nnn(C4CCN(C(=O)OC(C)(C)C)CC4)c3n2)cc1` 3240

Look up IC50 of `CC(C)n1nnc2c(N3CCOCC3)nc(-c3ccc(NC(=O)Nc4cnoc4)cc3)nc21` and report it. 132

Supply IC50 value. Item: `O=C(c1ccc(Cn2nnc3c(N4CCOCC4)nc(-c4cccc(O)c4)nc32)cc1)N1CCN(c2ccccc2)CC1` 10200

Identify the reported IC50 for the following entry. `Cc1ccc(NC(=O)Nc2ccc(-c3nc(N4CCOCC4)c4nnn(C(C)C)c4n3)cc2)cc1` 100

Quickly give me recorded IC50 for `CN(C)CCNC(=O)c1cccc(-n2nnc3c(N4CCOCC4)nc(-c4cccc(O)c4)nc32)c1` 260

Given the compound `CCn1nnc2c(N3CCOCC3)nc(-c3ccc(NC(=O)Nc4ccncc4)cc3)nc21` , write its reported IC50. 19

Please list IC50 recorded for the compound `CN(CCNC(=O)Nc1ccc(-c2nc(N3CCOCC3)c3nnn(CC(F)(F)F)c3n2)cc1)C(=O)OC(C)(C)C` 1500

Supply recorded IC50 for `CC(C)n1nnc2c(N3CCOCC3)nc(-c3ccc(NC(=O)Nc4ccc(NS(C)(=O)=O)cc4)cc3)nc21` here. 12

For the compound `CC(C)n1nnc2c(N3CCOCC3)nc(-c3ccc(NC(=O)Nc4ccc(CO)cc4)cc3)nc21` , give its reported IC50. 34.5

Read the entry `Oc1cccc(-c2nc(N3CCOCC3)c3nnn(CCN4CCNCC4)c3n2)c1` and write its reported IC50. 595

Please report the measured IC50 for `NC(=O)c1cccc(-n2nnc3c(N4CCOCC4)nc(-c4cccc(O)c4)nc32)c1` 314

Provide one value: measured IC50 of `COC(=O)c1ccc(Cn2nnc3c(N4CCOCC4)nc(-c4cc(O)cc(F)c4)nc32)cc1` 1610

For the compound `O=C(c1cccc(-n2nnc3c(N4CCOCC4)nc(-c4cccc(O)c4)nc32)c1)N1CCC(N2CCCC2)CC1` , give its reported IC50. 290

Name the recorded IC50 of the item `Oc1cccc(-c2nc(N3CCOCC3)c3nnn(CCN4CCN(Cc5cccnc5)CC4)c3n2)c1` in your answer. 2290

Return the recorded IC50 value; entry: `CCn1nnc2c(N3CCOCC3)nc(-c3ccc(NC(=O)Nc4ccc(C(=O)N(C)CCNC)cc4)cc3)nc21` 11.5

In one line, give reported IC50 of the entry `O=C(Nc1ccc(-c2nc(N3CCOCC3)c3nnn(C4CC4)c3n2)cc1)Nc1cccnc1` . 34

---

- subject_of_test: PI3 Kinase γ (Homo sapiens, UniProt P48736)
- Sequence (P48736 whole entry): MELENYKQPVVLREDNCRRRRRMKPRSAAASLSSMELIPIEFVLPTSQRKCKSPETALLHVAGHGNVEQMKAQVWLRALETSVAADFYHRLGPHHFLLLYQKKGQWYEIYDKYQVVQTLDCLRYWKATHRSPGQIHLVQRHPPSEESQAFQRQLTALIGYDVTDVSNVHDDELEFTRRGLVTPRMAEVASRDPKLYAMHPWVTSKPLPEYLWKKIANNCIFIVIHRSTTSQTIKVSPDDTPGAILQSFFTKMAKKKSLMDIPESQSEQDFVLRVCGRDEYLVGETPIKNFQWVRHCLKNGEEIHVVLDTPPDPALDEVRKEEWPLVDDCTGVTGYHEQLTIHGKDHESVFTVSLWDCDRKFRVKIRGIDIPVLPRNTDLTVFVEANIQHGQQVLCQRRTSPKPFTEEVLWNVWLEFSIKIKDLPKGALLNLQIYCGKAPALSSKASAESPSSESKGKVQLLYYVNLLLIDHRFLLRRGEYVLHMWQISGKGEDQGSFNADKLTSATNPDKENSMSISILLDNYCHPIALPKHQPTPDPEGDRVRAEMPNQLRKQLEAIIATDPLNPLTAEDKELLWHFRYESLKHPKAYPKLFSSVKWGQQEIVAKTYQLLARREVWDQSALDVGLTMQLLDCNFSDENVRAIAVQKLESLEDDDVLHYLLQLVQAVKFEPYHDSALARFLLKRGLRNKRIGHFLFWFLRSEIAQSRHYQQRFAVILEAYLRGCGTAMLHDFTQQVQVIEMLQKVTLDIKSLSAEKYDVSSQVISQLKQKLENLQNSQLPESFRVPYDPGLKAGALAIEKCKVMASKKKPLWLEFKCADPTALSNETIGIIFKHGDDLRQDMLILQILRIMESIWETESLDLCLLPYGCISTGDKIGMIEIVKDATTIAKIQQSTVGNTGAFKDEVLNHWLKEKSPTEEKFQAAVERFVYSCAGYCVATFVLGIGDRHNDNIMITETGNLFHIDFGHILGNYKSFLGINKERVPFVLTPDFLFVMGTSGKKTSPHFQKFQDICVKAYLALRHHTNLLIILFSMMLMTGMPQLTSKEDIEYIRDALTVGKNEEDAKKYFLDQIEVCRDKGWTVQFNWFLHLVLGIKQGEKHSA
- assay_overview: Fluorescence polarization assay for PI3K (PI3 Kinase γ)
- Type: biochemical
- test_context: diC8-PI(4,5)P2 substrate, 25 μM ATP, one hour at 25° C.
Provide the recorded IC50 for the entries that follow.
Field: numeric (nM). Do not append units.

Provide IC50 value for the following compound: CCN1CCCC1Cn1nnc2c(N3CCOCC3)nc(-c3cccc(O)c3)nc21 (stereo not shown) 1230

Answer with the recorded IC50 for the compound listed here: `CCn1nnc2c(N3CCOCC3)nc(-c3ccc(NC(=O)Nc4ccc(NC(=O)N5CCOCC5)cc4)cc3)nc21` 3.1

Using known records, supply IC50 for `O=C(Nc1ccncc1)Nc1ccc(-c2nc(N3CCOCC3)c3nnn(C4CCOCC4)c3n2)cc1` 43

Note IC50 for the compound shown: O=C(NCC(O)c1ccccc1)c1ccc(Cn2nnc3c(N4CCOCC4)nc(-c4cccc(O)c4)nc32)cc1 (stereo not shown) 958

Output measured IC50 for this item: `CCn1nnc2c(N3CCOCC3)nc(-c3ccc(NC(=O)Nc4ccc(C(=O)NCCN5CCOCC5)cc4)cc3)nc21` 29

Read the entry `CCn1nnc2c(N3CCOCC3)nc(-c3ccc(NC(=O)Nc4ccc(C(=O)N(C)CCN(C)C)cc4)cc3)nc21` and write its reported IC50. 11.3

Fill in reported IC50 for this entry: `CCn1nnc2c(N3CCOCC3)nc(-c3ccc(NC(=O)OCCc4ccc(N)cc4)cc3)nc21` 7440

---

measured_endpoint: IC50 (nM)
Please respond with the number in nM and leave the unit unwritten.

Tell me IC50 of `CCNC(=O)c1ccc(NC(=O)Nc2ccc(-c3nc(N4CCOCC4)c4nnn(CC)c4n3)cc2)cc1` when tested on PI3 Kinase α (Homo sapiens). 3.3

Look up PI3 Kinase α (Homo sapiens) data: IC50 of `CC(C)(C)OC(=O)N1CC(n2nnc3c(N4CCOCC4)nc(-c4ccc(NC(=O)Nc5ccncc5)cc4)nc32)C1` , then report it. 30

Please respond with reported IC50 (system PI3 Kinase α (Homo sapiens)) for `CCn1nnc2c(N3CCOCC3)nc(-c3ccc(NC(=O)Nc4cccs4)cc3)nc21` . 2.5

State recorded IC50 with PI3 Kinase α (Homo sapiens), entry `CCn1nnc2c(N3CCOCC3)nc(-c3ccc(NC(=O)Nc4ccc(C(=O)O)cc4)cc3)nc21` , no comment. 10.5

Retrieve IC50 on PI3 Kinase α (Homo sapiens); query `CCn1nnc2c(N3CCOCC3)nc(-c3ccc(NC(=O)Nc4ccc(C(=O)N5CCC(N6CCOCC6)CC5)cc4)cc3)nc21` 5.5

State recorded IC50 with PI3 Kinase α (Homo sapiens), entry `Cc1cc(CN2CCC(n3nnc4c(N5CCOCC5)nc(-c5cncc(O)c5)nc43)CC2)sc1C` , no comment. 16

# assay system PI3 Kinase α (Homo sapiens): give IC50 of `Oc1cccc(-c2nc(N3CCOCC3)c3nnn(CCCCN4CCCC4)c3n2)c1` 332

Write down measured IC50 (PI3 Kinase α (Homo sapiens)) for this compound. `c1cc(-c2nc(N3CCOCC3)c3nnn(CCCN4CCCC4)c3n2)c2cn[nH]c2c1` 83

Look up and report measured IC50 (PI3 Kinase α (Homo sapiens)) for the following compound: CCN1CCCC1Cn1nnc2c(N3CCOCC3)nc(-c3cccc(O)c3)nc21 (stereo not shown) 204

For PI3 Kinase α (Homo sapiens), give the measured IC50 of the entry `CC(C)(C)OC(=O)N1CCC(n2nnc3c(N4CCOCC4)nc(-c4cccc(O)c4)nc32)CC1` 189

Look up PI3 Kinase α (Homo sapiens) data: IC50 of `CN1CCC(n2nnc3c(N4CCOCC4)nc(-c4cncc(O)c4)nc32)CC1` , then report it. 304

Quote PI3 Kinase α (Homo sapiens) IC50 for entry `O=C(Cc1ccccc1)N1CCN(CCn2nnc3c(N4CCOCC4)nc(-c4cccc(O)c4)nc32)CC1` . 1170

// fetch IC50 for `O=C(Nc1ccc(CCO)cc1)Nc1ccc(-c2nc(N3CCOCC3)c3nnn(CC(F)(F)F)c3n2)cc1` ; system: PI3 Kinase α (Homo sapiens) 3

Consider the compound `CC(C)(C)C(=O)Nc1ncccc1CN1CCC(n2nnc3c(N4CCOCC4)nc(-c4cncc(O)c4)nc32)CC1` tested on PI3 Kinase α (Homo sapiens); state its IC50. 143

Report value: IC50, system: PI3 Kinase α (Homo sapiens), compound: `Oc1cccc(-c2nc(N3CCOCC3)c3nnn(CCN4CCN(Cc5cccc(F)c5)CC4)c3n2)c1` 242
